These data points were gathered from ChEMBL document CHEMBL1201862.

- target-or-test-system: Prothrombin (Homo sapiens, UniProt P00734)
- test-method-notes: Thrombin 1536 HTS Dose Response Confirmation. [Related pubchem assays: 1046 (Thrombin 1536 HTS; hits were confirmed in this assay)]
- Assay type: functional
Activity calls are given as the source filed them. Rule as the data show it: actives have a measured IC50 and inactives only a lower limit.
recorded-endpoint: IC50

IC50 recorded for this compound, COc1ccc(S(=O)(=O)CCc2nnc(NC(=O)c3cccs3)s2)cc1 , is > 50 µM (not active)

Memo: CCOc1ccc(NC(=O)c2ccc(CNc3c(N4CCCC4)c(=O)c3=O)cc2)cc1 , reported IC50: > 50 µM (not active)

Value of measured IC50 for the entry O=C(c1cccc([N+](=O)[O-])c1)n1nc(-c2ccccc2)nc1NCc1ccccc1 : 0.521 µM (active)

Field IC50 (entry Cc1ccc(-c2noc(CN3CCC(C(N)=O)CC3)n2)cc1 ) reads > 50 µM (not active)
